For each of the binders below, state its EC50.
# target of assay: T1, T8 (Tn-MUC1) (PAPGST(α-GalNAc)APPAHGVTSAPDT(α-GalNAc)RPAPG-OH)
# T1 peptide: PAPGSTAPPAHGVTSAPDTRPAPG
# assay protocol: glycopeptide array
Write it as a number; the unit µg/mL goes unstated.

[ask] Give its EC50 value. Item: 154 (antibody, V domains shown) VH: QVQLVQSGAEVKKSGASVKVSCKASGYIFTSYYIQWVRQAPGQGLEWMGVINPFDGSTDYAQKFQGRVTVTRDTSTTTVFMELSSLRSEDTAVYYCARDNMLGYVLFDYWGQGTLVTVSS
[reply] 0.162

[ask] Do the same for 62 (antibody, V domains shown) VH: QVQLVESGAEVKKPGASVKVSCKASGYSFTSYYIQWVRQAPGQGLEWLAVINPIDGSTNYAQKFQGRVTVTRDTSTSTVYMELSSLRSEDTAVYYCARDYMRGFVVFDYWGQGTLVTVSS please
[reply] 0.07

[ask] Now the same for 138 (antibody, V domains shown) VH: QVQLVQSGAEVKKPGASVRVSCKASGYTFINYYLQWVRQAPGQGLEWMGTINPFDGSTHYAQKFQGRVTMTRDTSTSTVYMELSSLRSEDTAVYYCARDSMIGYVLFDYWGQGTLVTVSS
[reply] 0.106

[ask] Request: 110 (antibody, V domains shown) VH: QVQLVQSGAEMKKPGASVKVSCKASGYTFTNYYIHWVRQAPGQGLEWMGVINPYDGSTNYAQKFQGRVTLTRDTSTTTVYMELSSLRSEDTAVYYCARDYMIGYVVFDFWGQGTLVTVSS
[reply] 0.153
